TEST_SYSTEM: CFTR-mediated chloride transport in human intestinal epithelial enteroid cells (Homo sapiens)
Sequence (P13569 with tags, fused parts or gaps DEL508-508): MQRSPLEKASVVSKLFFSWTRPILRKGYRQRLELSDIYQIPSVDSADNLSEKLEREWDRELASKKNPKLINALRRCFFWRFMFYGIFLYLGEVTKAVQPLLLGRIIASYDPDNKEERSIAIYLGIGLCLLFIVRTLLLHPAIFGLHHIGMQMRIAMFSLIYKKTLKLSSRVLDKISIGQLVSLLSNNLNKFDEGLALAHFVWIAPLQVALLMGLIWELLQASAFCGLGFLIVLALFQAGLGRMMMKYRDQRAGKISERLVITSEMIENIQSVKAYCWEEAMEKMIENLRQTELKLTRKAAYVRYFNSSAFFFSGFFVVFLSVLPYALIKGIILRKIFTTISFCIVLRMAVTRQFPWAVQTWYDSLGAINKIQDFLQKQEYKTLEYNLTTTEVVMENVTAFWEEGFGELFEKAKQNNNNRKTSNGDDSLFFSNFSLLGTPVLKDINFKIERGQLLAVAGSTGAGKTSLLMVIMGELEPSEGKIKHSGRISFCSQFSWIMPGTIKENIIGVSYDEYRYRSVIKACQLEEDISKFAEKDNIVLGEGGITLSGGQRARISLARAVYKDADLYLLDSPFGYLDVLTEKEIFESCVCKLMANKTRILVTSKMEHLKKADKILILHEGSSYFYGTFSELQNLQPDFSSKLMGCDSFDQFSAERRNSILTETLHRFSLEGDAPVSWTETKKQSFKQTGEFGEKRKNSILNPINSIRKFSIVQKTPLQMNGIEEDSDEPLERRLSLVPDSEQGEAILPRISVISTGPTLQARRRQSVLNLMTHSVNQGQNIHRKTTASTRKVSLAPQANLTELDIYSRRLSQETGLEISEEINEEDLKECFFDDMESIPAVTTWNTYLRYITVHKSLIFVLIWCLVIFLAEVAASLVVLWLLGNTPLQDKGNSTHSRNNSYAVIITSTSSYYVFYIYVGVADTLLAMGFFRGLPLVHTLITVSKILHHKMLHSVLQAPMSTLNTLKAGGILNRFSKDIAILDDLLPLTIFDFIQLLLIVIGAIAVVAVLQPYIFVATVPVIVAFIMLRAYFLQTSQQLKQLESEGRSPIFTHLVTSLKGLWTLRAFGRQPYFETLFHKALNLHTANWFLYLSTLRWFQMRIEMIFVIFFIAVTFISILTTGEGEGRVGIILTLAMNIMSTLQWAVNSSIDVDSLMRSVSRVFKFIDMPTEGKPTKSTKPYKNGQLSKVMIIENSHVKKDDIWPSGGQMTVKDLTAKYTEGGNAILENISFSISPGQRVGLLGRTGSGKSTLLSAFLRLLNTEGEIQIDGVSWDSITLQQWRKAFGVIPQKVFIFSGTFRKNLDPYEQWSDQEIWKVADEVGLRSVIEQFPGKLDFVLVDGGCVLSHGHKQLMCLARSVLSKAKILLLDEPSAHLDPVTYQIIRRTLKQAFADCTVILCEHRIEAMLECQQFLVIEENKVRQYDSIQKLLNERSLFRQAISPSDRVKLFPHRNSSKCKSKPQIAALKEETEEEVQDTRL
TEST_PROTOCOL: Membrane potential dye, Enteroid Assay B
Assay type: cell-based
TEST_PARAMETERS: % of chloride transport of triple combination control: 1 μM (14S)-8-[3-(2-{Dispiro[2.0.2.1]heptan-7-yl}ethoxy)-1H-pyrazol-1-yl]-12,12-dimethyl-...-2,2,4-trione, 3 μM tezacaftor, 300 nM acute ivacaftor
RESULT_TYPE: Ent. B Max Activity

[
  {
    "MOLECULE": "Cc1cccc(C)c1-c1cc2nc(n1)NS(=O)(=O)c1cccc(c1)C(=O)N(C1CC3(CC3)C1)CCC21CC1",
    "Ent. B Max Activity": "++ (++ is 30-60%)"
  },
  {
    "MOLECULE": "Cc1cccc(C)c1-c1nc2nc(c1F)CC[C@@H](CC(C)C)N(C1CC3(CC3)C1)C(=O)c1cccc(c1)S(=O)(=O)N2",
    "Ent. B Max Activity": "+++ (+++ is >60%)"
  },
  {
    "MOLECULE": "Cc1cccc(C)c1-c1cc2nc(n1)NS(=O)(=O)c1cccc(c1)C(=O)N(C1CC3(CC3)C1)CCC2C (stereo not shown)",
    "Ent. B Max Activity": "+++ (+++ is >60%)"
  },
  {
    "MOLECULE": "Cc1cccc(C)c1-c1cc2cc(n1)NS(=O)(=O)c1cccc(c1)C(=O)N(C1CC3(CC3)C1)[C@H](CC(C)C)CC2",
    "Ent. B Max Activity": "+++ (+++ is >60%)"
  },
  {
    "MOLECULE": "Cc1cccc(C)c1-c1cc2nc(n1)NS(=O)(=O)c1cccc(c1)C(=O)N(C1CC3(CC3)C1)CC[C@H]2c1ccc(C(C)(C)C)cc1 [Compound 22]",
    "Ent. B Max Activity": "++ (++ is 30-60%)"
  }
]

Item: Cc1cccc(C)c1-c1cc2nc(n1)NS(=O)(=O)c1cccc(c1)C(=O)N(CCCC(C)(C)O)CCC2C (stereo not shown) | Ent. B Max Activity: +++ (+++ is >60%)

Documented Ent. B Max Activity of Cc1cccc(C)c1-c1cc2nc(n1)NS(=O)(=O)c1cccc(c1)C(=O)N(Cc1ccc(C(C)(C)O)cc1)CCC2C (stereo not shown) : +++ (+++ is >60%)
